Compiled literature IC50, tested on Human KLK1 (Homo sapiens (Human), UniProt P06870).

MOLECULE	IC50
Nc1nccc2cc(CNC(=O)c3cnn(Cc4cccc(Oc5ccccc5)n4)c3)ccc12	15.8 µM
Nc1nn(Cc2nc(-c3ccccc3)no2)cc1C(=O)NCCOc1cccc(Cl)c1	> 40 µM
COCc1nn(Cc2ccc(Cn3ccccc3=O)cn2)cc1C(=O)NCc1c(C#N)ccc(OC)c1F	> 4 µM
Nc1nn(Cc2cccc(-c3ccccc3)n2)cc1C(=O)NCCOc1cccc(Cl)c1	> 40 µM
CCC(C)[C@H](C(=O)N[C@@H](Cc1ccc(F)c(F)c1)C(=O)NCc1ccc(N)nc1)N(C)C (stereo partly shown)	0.0159 µM

Given `COCc1nn(Cc2ccc3c(c2)CCN(C(C)C)C3)cc1C(=O)NCc1c(-n2cnc(C(F)F)n2)ccc(OC)c1F` , respond with its IC50.
> 40 µM

Given `COCCOc1ccc(Cc2cncc(C(=O)NCc3ccc4c(N)nccc4c3)c2)cc1` , respond with its IC50.
> 40 µM

Given `Nc1nccc2cc(CNC(=O)c3cnn(Cc4ccc(COc5cccc(F)n5)cc4)c3)ccc12` , respond with its IC50.
> 40 µM

Given `CCN1CCc2ccc(Cn3cc(C(=O)NCc4c(-n5ccc(C#N)n5)ccc(OC)c4F)c(COC)n3)cc2C1` , respond with its IC50.
> 40 µM

Given `COCc1nn(Cc2ccc(Cn3ccccc3=O)cc2)cc1C(=O)NCc1cc(OC)ccc1C` , respond with its IC50.
> 4 µM

Given CN1CCCC1C(=O)NC(Cc1c(F)c(F)c(F)c(F)c1F)C(=O)NCc1ccc(N)nc1 (stereo not shown) , respond with its IC50.
0.0452 µM

Given `COc1ccc(-n2cc(C)nn2)c(CNC(=O)c2cn(Cc3cn4c(n3)CN(C)CC4)nc2C(F)(F)F)c1F` , respond with its IC50.
> 40 µM

Given `CN(CCc1ccccc1)CC(=O)N[C@@H](Cc1ccc(F)c(F)c1)C(=O)NCc1ccc(N)nc1` , respond with its IC50.
0.0935 µM

Given `Nc1nccc2cc(CNC(=O)c3cn(Cc4ccc(N5CCC(F)(F)C5)nc4)nc3C(F)(F)F)ccc12` , respond with its IC50.
> 10 µM
